# experimentalSystem: PARG (Bos taurus, UniProt O02776)
# Sequence (O02776 385-977): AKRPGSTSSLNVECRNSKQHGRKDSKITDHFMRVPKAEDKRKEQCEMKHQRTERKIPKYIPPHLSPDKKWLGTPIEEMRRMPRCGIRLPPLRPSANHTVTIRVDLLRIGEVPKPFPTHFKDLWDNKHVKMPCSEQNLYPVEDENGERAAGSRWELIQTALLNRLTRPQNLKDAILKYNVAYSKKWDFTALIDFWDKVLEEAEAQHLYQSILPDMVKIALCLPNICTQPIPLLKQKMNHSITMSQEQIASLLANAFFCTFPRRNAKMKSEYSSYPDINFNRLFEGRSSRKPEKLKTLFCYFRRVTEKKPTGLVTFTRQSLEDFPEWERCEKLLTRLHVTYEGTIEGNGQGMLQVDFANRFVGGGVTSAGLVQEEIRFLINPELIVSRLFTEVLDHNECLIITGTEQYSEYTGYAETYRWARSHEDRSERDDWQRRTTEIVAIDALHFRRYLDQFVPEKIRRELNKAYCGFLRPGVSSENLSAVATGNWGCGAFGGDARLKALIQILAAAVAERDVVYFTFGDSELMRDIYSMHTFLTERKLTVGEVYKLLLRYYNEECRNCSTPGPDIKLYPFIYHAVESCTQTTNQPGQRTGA
# testDescription: PARG assay
# Type: biochemical
# particulars: SAR discussion in text
readout: PARG inhibition (in words)

smilesStructure: O=C(Nc1ccccc1Cl)c1cc(Cl)cc(Cl)c1O
dataValue: slight loss of potency
--
smilesStructure: O=C(Nc1ccc(Cl)cc1)c1cc(Cl)cc(Cl)c1O
dataValue: slight loss of potency
--
smilesStructure: Oc1c(Cl)cc(Cl)cc1/C=N/c1ccc(Oc2ccc3ccccc3c2)c(Cl)c1
dataValue: loss of PARG inhibition
--
smilesStructure: Oc1c(Cl)cc(Cl)cc1CNc1ccc(Oc2ccc3ccccc3c2)c(Cl)c1
dataValue: loss of PARG inhibition

---

# System: PARP activity in SCC-25 cells
# testDescription: NAD assay: NAD
# Format: cell-based
# particulars: pretreated with 1mM compound, MNNG 5μg/mL for 30 minutes (Figure 2C)
readout: inhibition of NAD(H) depletion (in words)

compound: NC(=O)c1cc(Cl)cc(Cl)c1O [Compound 7, 3,5-dichloro-2-hydroxybenzamide]
dataValue: minimal effect

compound: O=C(Nc1ccc(Oc2ccc3ccccc3c2)c(Cl)c1)c1cc(Cl)cc(Cl)c1
dataValue: minimal effect

Taken from paper PMC3150619.
